Tested on: SK-MEL-28
Assay: NCI tumour cell line growth inhibition, 48 h
Active and inactive are the calls of the source. Cut-off read from the data, not from the text of the source: active = GI50 up to about 1.1 µM and inactive = higher.
Outcome codes: active, inactive

INSERT INTO measurements (molecule, classname) VALUES
  ('C=C(C)[C@H]1C[C@@H]2O[C@@](O)(/C(C)=C\C(=O)/C=C(/C)C[C@H]3OC(=O)[C@@]24O[C@H]34)[C@@H]1O', 'inactive'),
  ('CCCC(C)C[C@@H](C)CC(C)/C=C(\C)c1oc(=O)c(C)c(O)c1C.CC[C@@H](C)C[C@@H](C)C[C@@H](C)/C=C(\C)c1oc(=O)c(C)c(O)c1C (stereo partly specified)', 'inactive'),
  ('O=C1CC(c2cccc(Cl)c2)Nc2ccc(N3CCCC3)cc21 (stereo unspecified)', 'active'),
  ('COc1cc(OC)cc(-n2c(N)c(C#N)c3ccc([N+](=O)[O-])cc3c2=O)c1', 'inactive'),
  ('O=C1c2cc3c(cc2NC(c2ccccc2F)C1O)OCO3 (stereo unspecified)', 'inactive'),
  ('COc1cc(/C=N/c2ccc(S(N)(=O)=O)cc2)cc(OC)c1', 'inactive'),
  ('CC(C)CCCC(C)[C@H]1CC[C@H]2[C@@H]3CC[C@H]4C[C@@H](CCC=C(c5cc(Cl)c(O)c(C(=O)OC(C)C)c5)c5cc(Cl)c(O)c(C(=O)OC(C)C)c5)CC[C@]4(C)[C@H]3CC[C@]12C (stereo partly specified)', 'inactive'),
  ('N#CCCC1(CCC#N)S(=O)(=O)OCCOS1(=O)=O', 'inactive'),
  ('c1ccc2c(c1)nc1n2CNC1', 'inactive'),
  ('CC1CCc2sc3nc4n(c(=O)c3c2C1)CC(C)S4 (stereo unspecified)', 'inactive'),
  ('COC(=O)Cc1cc2c(cc1C(=O)c1ccc(N)cc1)OCO2', 'inactive'),
  ('O=[N+]([O-])c1ccc(CSc2nncc3[nH]cnc23)cc1', 'inactive'),
  ('O=c1/c(=C/c2cccc([N+](=O)[O-])c2)sc2nc3ccccc3n12', 'inactive'),
  ('CC12OC3(C)OC(=O)C(c4ccccc4)(O1)C3(C)O2 (stereo unspecified)', 'inactive'),
  ('C1=Cc2nc1c(-c1ccccc1)c1ccc([n-]1)c(-c1ccccc1)c1nc(c(-c3ccccc3)c3ccc([n-]3)c2-c2ccccc2)C=C1.[Zn+2]', 'inactive'),
  ('NC(=O)SCCC(N)C(=O)O (stereo unspecified)', 'inactive'),
  ('CN(C)CCNC(=O)c1cccc2c(NC(CS)C(=O)O)c3ccccc3[n+](C)c12 (stereo unspecified)', 'inactive'),
  ('N#Cc1c(N)oc(-c2cccc([N+](=O)[O-])c2)c1C#N', 'inactive'),
  ('CCCCc1c(OC)cc(O)c2c1C(=O)c1[nH]c(C(=O)O)c(O)c(=O)c1C2=O', 'inactive'),
  ('CCN(CCO)CC1CCCC2CCCCC21 (stereo unspecified)', 'inactive'),
  ('Cc1cc2c(cc1C)[n+]([O-])c(NCCCN(C)C)c(C#N)[n+]2[O-]', 'inactive'),
  ('C=C1C2CC(OC(C)=O)C3(C)C(c4ccoc4)OC(=O)[C@@H](O)[C@]13OC1C[C@H](OC(C)=O)C(C)(C)[C@H](C(O)C(=O)OC)[C@]12C (stereo partly specified)', 'inactive'),
  ('O=C(O)CCSC(=O)Nc1ccccc1F', 'inactive'),
  ('CCCCCCN(N)C(=O)CC#N', 'inactive'),
  ('Cc1[nH]c(=O)nc(S)c1C(=O)Nc1cccc2cc3ccccc3cc12', 'inactive'),
  ('COC(=O)c1cc2c3c(c1)Oc1cc(C(=O)OC)cc4c1C3c1c(cc(C(=O)OC)cc1O4)O2', 'inactive'),
  ('c1ccc(C(OCCN2CC3CCC(C2)N3)c2ccccc2)cc1', 'inactive'),
  ('O=NN(CCCl)C(=O)N[C@H]1CC[C@H](CC(=O)O)CC1', 'inactive'),
  ('C[N+](C)(C)CC(=O)N/N=C(/Cc1nc2ccc([N+](=O)[O-])cc2nc1O)C(=O)Nc1cc(C(F)(F)F)ccc1Cl', 'inactive'),
  ('O=C(c1ccccc1)C1N=NCC1c1ccc([N+](=O)[O-])cc1 (stereo unspecified)', 'inactive'),
  ('N=C(N)SCc1ccc(Cl)c2ccccc12.O=[N+]([O-])c1ccc(O)c([N+](=O)[O-])c1', 'inactive'),
  ('CCCC(=O)OC[n+]1cccc(-c2c(COC(=O)NC(C)C)c(COC(=O)NC(C)C)c3n2CCC3)c1', 'inactive'),
  ('COc1ccc(P2(=S)Oc3ccc(C(c4ccccc4)(c4ccccc4)c4ccccc4)cc3O2)cc1 (stereo unspecified)', 'inactive'),
  ('C=C(C)C1Cc2c(cc(O)c3c(=O)c4c(oc23)C(O)Oc2cc(OC)c(OC)cc2-4)O1 (stereo unspecified)', 'inactive'),
  ('Cc1cc(NCCCCCCCCNc2cc(C)nc3cc(N(C)C)ccc23)c2ccc(N(C)C)cc2n1', 'active'),
  ('CCC(CC)n1cc(C(=O)NC(=O)NCCCCCOC(=O)CCCCCCCCCCC(=O)OCCCCCNC(=O)NC(=O)c2cn(C(CC)CC)c(=O)[nH]c2=O)c(=O)[nH]c1=O', 'inactive');

---

Tested on: NCI-H522
Assay: NCI tumour cell line growth inhibition, 48 h
The source made the active and inactive calls. Cut-off read from the data, not from the text of the source: active = GI50 up to about 1.1 µM and inactive = higher.
Outcome codes: class 1 = active, class 0 = inactive

INSERT INTO results (molecule, classname) VALUES
  ('O=C(C1OC1c1ccc(Cl)cc1)C12CC3CC(CC(C3)C1)C2 (stereo unspecified)', 'class 0'),
  ('Clc1cccc2c1OCC1C(c3ccccc3)=NN(c3ccccc3)C21 (stereo unspecified)', 'class 0'),
  ('N#C/C(=C\c1c(O)cc(O)cc1O)C(N)=O', 'class 0'),
  ('O=C(CCCN1CCC2(CC1)CC(=O)N(N1CCOCC1)C2=O)c1ccc(F)cc1', 'class 0'),
  ('CC(C)=CCNc1ncnc2[nH]cnc12', 'class 0'),
  ('COc1cc(NS(C)(=O)=O)ccc1Nc1cc(C)nc2ccc3[nH]ccc3c12', 'class 0'),
  ('Nc1nc(N)c2cc(CNc3ccc(C(=O)NC(CC(=O)O)C(=O)O)c(Cl)c3)ccc2n1 (stereo unspecified)', 'class 1'),
  ('O=C(NC(=S)Nc1ccc(Br)cc1)c1ccc2c(c1)Sc1ccccc1S2', 'class 0'),
  ('Nc1ccc(S(=O)(=O)c2ccc(/N=[N+](\[O-])c3ccc(S(=O)(=O)c4ccc(N)cc4)cc3)cc2)cc1', 'class 0'),
  ('CC1(O)C(C)(O)C2(C)O[Te]3(OC12C)OC1(C)C(C)(O)C(C)(O)C1(C)O3 (stereo unspecified)', 'class 0'),
  ('C/C=C/C=C\C(=O)C1c2cccc(O)c2C(=O)c2c(O)cc(C)cc21 (stereo unspecified)', 'class 0'),
  ('CC(C)SC(=S)Sc1c(Cl)c(Cl)nc(Cl)c1Cl', 'class 0'),
  ('Cc1c(-c2c(C)c3ccccc3n2S(=O)(=O)c2ccccc2)n(S(=O)(=O)c2ccccc2)c2ccccc12', 'class 0'),
  ('C=C1C(=O)[C@@]23CC[C@@H]4[C@@]5(C)CCC[C@@]4(OC5=O)C2(C)CC[C@]1(OC)C3 (stereo partly specified)', 'class 1'),
  ('Cc1cc(Cl)cc2c1NC(=O)C2(O)CC(=O)c1ccc(Br)cc1 (stereo unspecified)', 'class 0'),
  ('O=C(O)c1cc(C(=O)O)cc(N2C(=O)c3ccccc3C2=O)c1', 'class 0'),
  ('O=C1CCCC2COc3ccc(O)c1c32 (stereo unspecified)', 'class 0'),
  ('C1=Cc2nc1c(-c1ccccc1)c1ccc([n-]1)c(-c1ccccc1)c1nc(c(-c3ccccc3)c3ccc([n-]3)c2-c2ccccc2)C=C1.[Zn+2]', 'class 0'),
  ('N=C(N)SCc1ccc(Cl)c2ccccc12.O=[N+]([O-])c1ccc(O)c([N+](=O)[O-])c1', 'class 0'),
  ('CCN(C(=O)N[C@H](C(=O)N[C@@H](C)C(=O)OC)C(C)C)c1ccccc1', 'class 0'),
  ('O=c1c2cc(I)ccc2nc(Sc2ccc([N+](=O)[O-])cc2[N+](=O)[O-])n1Cc1ccccc1', 'class 1'),
  ('O=c1[nH]c2cc([N+](=O)[O-])ccc2nc1/C(=N\NO)C(O)c1ccc([N+](=O)[O-])cc1 (stereo unspecified)', 'class 0'),
  ('CCOP(=O)(/C=C/n1cc(C)c(=O)[nH]c1=O)OCC', 'class 0'),
  ('CCCC(=O)OC[n+]1cccc(-c2c(COC(=O)NC(C)C)c(COC(=O)NC(C)C)c3n2CCC3)c1', 'class 0'),
  ('O/N=C1/C(=C/c2ccc(Cl)c(Cl)c2)CCCC1C(NO)c1ccc(Cl)c(Cl)c1 (stereo unspecified)', 'class 0'),
  ('Oc1ccccc1/C=C/c1csnn1', 'class 0'),
  ('COc1ccc(Nc2n[nH]c(NS(=O)(=O)c3cc(C)c(Cl)cc3S)n2)cc1', 'class 0'),
  ('CC1(C)[C@H]2CC[C@](C)(C2)[C@]1(S)Cc1ccccn1', 'class 0'),
  ('O=c1[nH]c2ccc([N+](=O)[O-])c(Cl)c2c2ccccc12', 'class 0'),
  ('COc1ccc(N2C(=O)C3c4[nH]c5cccc(C)c5c4C4CCC(C(C)(C)C)CC4C3C2=O)cc1 (stereo unspecified)', 'class 0'),
  ('Cc1ccc(C2CC(=O)CC(c3ccc(C)cc3)C23C(=O)NC(=O)NC3=O)cc1 (stereo unspecified)', 'class 0'),
  ('N#Cc1nc(COCCOCc2ccccc2)oc1N', 'class 0'),
  ('OCSc1nn(CO)c(=S)s1', 'class 0'),
  ('CC(=NNC(=S)Nc1ccc(C)cc1)c1cccc(C(C)=NNC(=S)Nc2ccc(C)cc2)n1', 'class 0'),
  ('CCCCCCCCNC(=O)C1=C(C)NC(C)=C(C(=O)NCCCCCCCC)C1', 'class 0'),
  ('CCCCCCCCCCCCCCCCCCCCCC(=O)Nc1ccn(C2OC(CO)C(O)C2O)c(=O)n1 (stereo unspecified)', 'class 0');
